Tested system: recombinant human TFPI (tissue factor pathway inhibitor) (human, UniProt P10646 29-304)
Experimental protocol: cell-based or functional assay
Readout type: FXa assay % of FXa alone, 2.5 nM Ab, 10 nM TFPI (%)
Kindly answer with a numeric value in %, unit omitted.

// returns reported FXa assay % of FXa alone, 2.5 nM Ab, 10 nM TFPI for input clone 3203 (antibody, V domains shown) VH: EVQLVESGGGLVKPGGSLRLSCAASGFTFSSYAMSWVRQAPGKGLEWVSTITTGGSYTYYADSVEGRFTISRDNAKNSLYLQMNSLRAEDTAVYYCARQDGNFLMDYWGQGTLVTVSS VL: DVVMTQTPLSLPVTLGQPASISCKSSQSLLDLDGKTYLNWLQQRPGQSPKRLIYLVSKLDSGVPDRFTGSGSGTDFTLKISRVEAEDVGVYYCWQGTHFPFTFGQGTKVEIKR
6.2

What value of FXa assay % of FXa alone, 2.5 nM Ab, 10 nM TFPI has been reported for the following binder? clone 4206 (antibody, V domains shown) VH: EVQLVESGGGLVKPGGSLRLSCAASGFTFSSYAMNWVRQAPGKGLEWVSTITTGGSHTYYADSVEGRFTISRDNAKNSLYLQMDSLRAEDTAVYYCARQDGNFLMDYWGQGTLVTVSS VL: DVVMTQTPLSLPVTLGQPASISCKSSQSLLDVDGKTYLNWLQQRPGQSPKRLIYLVSKLDSGVPDRFTGSGSGTDFTLKISRVEAEDVGVYYCWQGTHLPFTFGQGTKVEIKR
4.7

# lookup: FXa assay % of FXa alone, 2.5 nM Ab, 10 nM TFPI of clone 1023 (antibody, V domains shown, scFv on yeast at selection; human IgG4/kappa IgG as purified) VH: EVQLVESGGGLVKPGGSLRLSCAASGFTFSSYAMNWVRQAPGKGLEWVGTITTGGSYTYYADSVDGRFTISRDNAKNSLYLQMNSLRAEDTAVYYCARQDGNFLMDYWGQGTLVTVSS VL: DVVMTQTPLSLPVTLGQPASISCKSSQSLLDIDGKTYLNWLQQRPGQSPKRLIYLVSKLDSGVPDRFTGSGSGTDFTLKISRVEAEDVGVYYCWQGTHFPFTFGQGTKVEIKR
7.9
